# Target System: human Aurora A (Homo sapiens, UniProt O14965)
# Construct: Histidine tag (N); host or cells: Sf9 insect cells (baculovirus)
# Sequence (O14965 1-403): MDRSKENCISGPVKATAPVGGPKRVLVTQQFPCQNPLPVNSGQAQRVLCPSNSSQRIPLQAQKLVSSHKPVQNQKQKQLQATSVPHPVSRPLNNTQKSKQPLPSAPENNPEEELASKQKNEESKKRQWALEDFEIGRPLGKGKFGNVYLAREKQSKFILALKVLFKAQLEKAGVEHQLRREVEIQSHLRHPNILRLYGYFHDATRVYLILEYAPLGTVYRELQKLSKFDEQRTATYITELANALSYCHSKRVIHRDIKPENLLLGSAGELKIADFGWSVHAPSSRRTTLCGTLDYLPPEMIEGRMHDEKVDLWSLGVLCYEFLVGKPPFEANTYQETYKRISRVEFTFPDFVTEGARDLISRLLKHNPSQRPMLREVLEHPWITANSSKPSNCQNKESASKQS
# Experiment Description: Aurora A kinase assay (DELFIA enzyme inhibition)
# Format: biochemical
# Run Conditions: read-out: Aurora A IC50
pIC50: −log10 of the molar value.

- Mol Smiles: "COc1ccc(-c2nc(-c3csc4ccccc34)[nH]c2C(N)=O)cc1"
  pIC50: "> 4.00"
- Mol Smiles: "NC(=O)c1nc(-c2c(F)cccc2F)oc1Nc1ccc(OC(F)(F)F)cc1"
  pIC50: "> 4.00"
- Mol Smiles: "NC(=O)c1nc(-c2ccncc2)oc1-c1ccc(N2CCNCC2)cc1"
  pIC50: "> 5.00"
- Mol Smiles: "NC(=O)c1nc(-c2c(F)cccc2F)oc1-c1ccc(OCC2CCNCC2)cc1"
  pIC50: "> 5.00"
- Mol Smiles: "NC(=O)c1[nH]c(-c2c(F)cccc2F)nc1-c1cccs1"
  pIC50: "> 4.00"

* * *

# Target System: human Aurora A (Homo sapiens)
# Construct: Histidine tag (N); host or cells: Sf9 insect cells (baculovirus)
# Experiment Description: Aurora A kinase assay (DELFIA enzyme inhibition)
# Assay type: biochemical
# Run Conditions: read-out: Aurora A IC50
Quick list: IC50 per entry.
Assay Readout: IC50

- Compound: "CCCN(CCO)CCOc1ccc(-c2oc(-c3c(F)cccc3F)nc2C(N)=O)cc1 [Example S-16]"
  Result: "< 10 µM"
- Compound: "NC(=O)c1nc(-c2c(F)cccc2F)oc1Nc1ccc(NC(=O)C2CCCNC2)cc1 (centres unmarked) [Example V-4]"
  Result: "< 10 µM"
- Compound: "NC(=O)c1nc(-c2c[nH]c3ccccc23)oc1-c1cccs1 [Example E-4]"
  Result: "< 100 µM"
- Compound: "NC(=O)c1nc(-c2c(F)cccc2Cl)oc1-c1ccc(N2CCNCC2)cc1 [Example G-5]"
  Result: "< 10 µM"
- Compound: "NC(=O)c1nc(-c2ccccc2F)oc1Nc1ccc(N2CCOCC2)cc1 [Example Q-23]"
  Result: "< 10 µM"
- Compound: "CC(C)(C)OC(=O)N1CCC(NC(=O)c2ccc(Nc3oc(-c4c(F)cccc4F)nc3C(N)=O)cc2)CC1 [Example U-20]"
  Result: "< 100 µM"
- Compound: "NC(=O)c1nc(-c2c(F)cccc2F)oc1Nc1ccc(-n2cnnn2)cc1 [Example Q-31]"
  Result: "< 10 µM"
- Compound: "NC(=O)c1nc(-c2ccc3[nH]ccc3c2)oc1-c1ccc(N2CCNCC2)cc1 [Example M-15]"
  Result: "< 10 µM"
- Compound: "NC(=O)c1nc(-c2c(F)cccc2F)oc1Nc1cccnc1 [Example Q-45]"
  Result: "< 10 µM"
- Compound: "NC(=O)c1nc(-c2c(F)cccc2F)oc1-c1ccc(OCC(O)CN2CCOCC2)cc1 (centres unmarked) [Example T-2]"
  Result: "< 10 µM"
- Compound: "NC(=O)c1nc(-c2ccccc2F)oc1-c1ccc(N2CCNCC2)cc1 [Example G-4]"
  Result: "< 10 µM"
- Compound: "CC(=O)N1CCN(c2ccc(-c3oc(-c4c(F)cccc4F)nc3C(N)=O)cn2)CC1 [Example I-2]"
  Result: "< 10 µM"
- Compound: "CNCCCNC(=O)c1ccc(Nc2oc(-c3c(F)cccc3F)nc2C(N)=O)cc1 [Example U-4]"
  Result: "< 10 µM"
- Compound: "CN1CCN(CCOc2ccc(-c3oc(-c4c(F)cccc4F)nc3C(N)=O)cc2)CC1 [Example S-1]"
  Result: "< 10 µM"
- Compound: "NC(=O)c1nc(-c2c(F)cccc2F)oc1Nc1ccc(C(=O)O)cc1 [Example U-1]"
  Result: "< 10 µM"
- Compound: "NC(=O)c1nc(-c2c(F)cccc2F)oc1Nc1ccc(C(=O)N[C@@H]2CCNC2)cc1 [Example U-6]"
  Result: "< 10 µM"
- Compound: "NC(=O)c1nc(-c2c(F)cccc2F)oc1-c1ccc(OCCN2CCC(C(N)=O)CC2)cc1 [Example S-10]"
  Result: "< 10 µM"
